Kindly state self-cleavage for each of the entries shown.
B1: Hairpin Ribozyme (parent)
chain: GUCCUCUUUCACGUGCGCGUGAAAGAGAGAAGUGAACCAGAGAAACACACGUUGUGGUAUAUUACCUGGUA

Variants of: B1
Assay: self-cleavage, relative activity (ratio to wild type); higher = more cleavage; co-transcriptional
Numbers only.

Reference set (4 entries):
Variant identifier: U5G A49C
Result value: 0.205

Variant identifier: U7A U53A
Result value: 0.879

Variant identifier: U8C A45G
Result value: 0.149

Variant identifier: C48A G51A
Result value: 0.106

Below are 3 variants. Give each one its self-cleavage.
1. U20C A24G
2. C12G A31U
3. C10A A44U

1. 0.758
2. 0.152
3. 0.139

Each variant below has a recorded value; state its self-cleavage.
1. C37A U62A
2. G15U G57C
3. A28C A30G
4. G32U A45U
5. A22C G32A
6. G17U A44C
7. G27A C65G
8. U8A G40C

[0.133, 0.128, 0.136, 0.3, 0.178, 0.152, 0.161, 0.156]

# per-item lookup of self-cleavage; items listed below
1. G1U U8C
2. C6U A35G
3. C3U A11G
4. A22U A71C
5. U2A U9C

[0.118, 0.683, 0.338, 1.37, 0.233]
